Where do these numbers come from? They come from paper PMC12416549.

TESTED SYSTEM: T1, TNFR1 (Homo sapiens, UniProt P19438)
T1 chain: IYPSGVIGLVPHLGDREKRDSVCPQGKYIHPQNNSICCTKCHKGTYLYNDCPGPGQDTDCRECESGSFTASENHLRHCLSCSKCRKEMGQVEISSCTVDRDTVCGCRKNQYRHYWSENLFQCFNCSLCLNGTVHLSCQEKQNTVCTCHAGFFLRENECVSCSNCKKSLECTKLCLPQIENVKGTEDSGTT
PROTOCOL NOTES: yeast display SC50
METRIC NAME: apparent Kd (screen) (nM)

Completed entries (count: 2):
K27T (designed binder) SMEEEVEKAAKEYEKKKKEAIEKHLETLKAKDKEAAERFLKELEEAAKEYAKDEAKTMSEEEAKRRAKKYKEKVLLSELSEEEQKEIKEAEEKLVRTILKYVEEAAK; 0.956
K68L (designed binder) SMEEEVEKAAKEYEKKKKEAIEKHLEKLKAKDKEAAERFLKELEEAAKEYAKDEAKTMSEEEAKRRALKYKEKVLLSELSEEEQKEIKEAEEKLVRTILKYVEEAAK; 2.73

a = K52E (designed binder) SMEEEVEKAAKEYEKKKKEAIEKHLEKLKAKDKEAAERFLKELEEAAKEYAEDEAKTMSEEEAKRRAKKYKEKVLLSELSEEEQKEIKEAEEKLVRTILKYVEEAAK
b = E14Q (designed binder) SMEEEVEKAAKEYQKKKKEAIEKHLEKLKAKDKEAAERFLKELEEAAKEYAKDEAKTMSEEEAKRRAKKYKEKVLLSELSEEEQKEIKEAEEKLVRTILKYVEEAAK
Asked: Which value of apparent Kd (screen) is greater, the one for a or the one for b ? Respond using the label that marks the chosen record.
Given back: b
